- TESTED_ON: T1, recombinant extracellular domain of CD47 (UniProt Q08722 19-139, limits assumed)
- T1 construct: extracellular domain; Analyte flowed over the captured antibodies in SPR; also called CD47-ECD
- METHOD_NOTES: SPR; antibody captured on anti-human Fc, CD47-ECD flowed 0-100 nM; 1:1 Langmuir
ASSAY_METRIC: kon (M⁻¹ s⁻¹)
Reply with just the number (in M⁻¹ s⁻¹).

Answered cases to consult:
• Ab495/Ab356 (antibody, V domains shown, also called LC Ab495 / HC Ab356) VH: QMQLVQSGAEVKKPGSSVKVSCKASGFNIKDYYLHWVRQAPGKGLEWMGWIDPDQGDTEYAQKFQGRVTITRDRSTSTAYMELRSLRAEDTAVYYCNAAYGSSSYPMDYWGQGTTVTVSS VL: NIQMTQSPSSLSASVGDRVTITCKASQDIHRYLSWYQQKPGKAPKHLIYRANRLVSGVPSRFSGSGSGTEFTLTISSLQPEDFATYYCLQYDEFPYTFGGGTKVEIK = 3.13e+06
• Ab480/Ab1120 (antibody, V domains shown, FR and CDR L2 variant; Label printed HC first although the head says LC/HC; also called HC Ab480 / LC Ab1120) VH: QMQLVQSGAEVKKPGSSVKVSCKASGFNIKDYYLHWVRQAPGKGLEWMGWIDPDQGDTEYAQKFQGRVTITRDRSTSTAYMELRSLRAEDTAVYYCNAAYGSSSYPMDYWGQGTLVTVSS VL: NIQMTQSPSSLSASVGDRVTITCRASQDIHRYLSWFQQKPGKVPKHLIYRYVRFVDGVPSRFSGSGSGTEFTLTISSLQPEDFATYYCLQYDEFPYTFGGGTKVEIK = 2.28e+06
• Ab482/Ab387 (antibody, V domains shown, FR variant of AbParental; also called LC Ab482 / HC Ab387) VH: QMQLVQSGAEVKKPGSSVKVSCKASGFNIKDYYLHWVRQAPGKGLEWMGWIDPDQGDTEYAQKFQGRVTITRDRSTSTAYMELRSLRSEDTAVYYCNAAYGSSSYPMDYWGQGTLVTVSS VL: NIQMTQSPSSMSASVGDRVTITCKASQDIHRYLSWFQQKPGKVPKHLIYRANRLVSGVPSRFSGSGSGTEFTLTISSLQPEDFATYYCLQYDEFPYTFGGGTKVEIK = 9.93e+06

// query Record request: kon value, item Ab356/Ab1121 (antibody, V domains shown, FR and CDR L2 variant; Label printed HC first; the entry in numeric order (r442) is used; also called HC Ab356 / LC Ab1121) VH: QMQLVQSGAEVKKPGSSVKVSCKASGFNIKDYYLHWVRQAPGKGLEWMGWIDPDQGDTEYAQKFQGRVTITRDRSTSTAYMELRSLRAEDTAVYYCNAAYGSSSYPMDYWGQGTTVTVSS VL: NIQMTQSPSSLSASVGDRVTITCRASQDIHRYLSWFQQKPGKVPKHLIYRYIRFVDGVPSRFSGSGSGTEFTLTISSLQPEDFATYYCLQYDEFPYTFGGGTKVEIK
// result 2.53e+06

// query Looking for the measured kon of Ab480/Ab1122 (antibody, V domains shown, FR and CDR L2 variant; Label printed HC first; r445 used; also called HC Ab480 / LC Ab1122) VH: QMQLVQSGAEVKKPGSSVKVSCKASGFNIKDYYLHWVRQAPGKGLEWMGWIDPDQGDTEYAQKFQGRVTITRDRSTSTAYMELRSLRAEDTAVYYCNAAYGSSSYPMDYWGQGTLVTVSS VL: NIQMTQSPSSLSASVGDRVTITCRASQDIHRYLSWFQQKPGKVPKHLIYRYERFVDGVPSRFSGSGSGTEFTLTISSLQPEDFATYYCLQYDEFPYTFGGGTKVEIK , can you help?
// result 2.33e+06
